Reference source for all entries: paper PMC12059162

Reported viability at 72 h, 25 µM values for the following compounds.
# ASSAY_METHOD_TEXT: alamarBlue cell viability, cardiotoxicity
# COND: mouse, HL-1 cardiomyocytes
Don't forget the unit after the number, please.

For record O=C1C2=C(CCN(Cc3ccccc3)C2)N2CCN=C2N1Cc1ccc(F)cc1 the listed viability at 72 h, 25 µM is 82%

Now take the following compound into account.
The measured viability at 72 h, 25 µM associated with O=C1C2=C(CCN(Cc3ccccc3)C2)N2CCN=C2N1Cc1cccc(F)c1 reads 88.3%

---

# ASSAY_METHOD_TEXT: alamarBlue cell viability, cardiotoxicity
# COND: mouse, HL-1 cardiomyocytes
Measured viability at 72 h, 0.5 µM by item
The response must be a number in % with no trailing unit.

The compound listed as O=C1C2=C(CCN(Cc3ccccc3)C2)N2CCN=C2N1Cc1cccc(F)c1 shows viability at 72 h, 0.5 µM equal to 98.8

Now turn to the next compound.
For this compound ( O=C1C2=C(CCN(Cc3ccccc3)C2)N2CCN=C2N1Cc1ccc(F)cc1 ), measured viability at 72 h, 0.5 µM is 89.9

---

# ASSAY_METHOD_TEXT: in vitro
# COND: mouse
PROPERTY_LABEL: viability at 72 h, 25 µM (%)
Answer format: numeric, % implied, no suffix.

The reported viability at 72 h, 25 µM of the molecule Cc1ccccc1CN1C(=O)C2=C(CCN(Cc3ccccc3)C2)N2CCN=C12 [ONC201, reference compound] was 89

---

# ASSAY_METHOD_TEXT: in vitro
# COND: human
PROPERTY_LABEL: viability at 72 h, 0.37 µM (%)
The response must be a number in % with no trailing unit.

Per the record, Cc1ccccc1CN1C(=O)C2=C(CCN(Cc3ccccc3)C2)N2CCN=C12 [ONC201, reference compound] has viability at 72 h, 0.37 µM of 115

---

# ASSAY_METHOD_TEXT: alamarBlue cell viability, healthy cells
# COND: human, NHDF cells
PROPERTY_LABEL: viability at 72 h, 8.6 µM (%)
Please give a number only; it is taken to be in %.

Reported viability at 72 h, 8.6 µM ( O=C1C2=C(CCN(Cc3ccccc3)C2)N2CCN=C2N1Cc1cccc(F)c1 [TBP-135] ) = 65.9

---

# ASSAY_METHOD_TEXT: alamarBlue cell viability, healthy cells
# COND: human, NHDF cells
PROPERTY_LABEL: viability at 72 h, 0.5 µM (%)
Value expressed in %; do not type the unit.

Item: O=C1C2=C(CCN(Cc3ccccc3)C2)N2CCN=C2N1Cc1ccc(F)cc1 | viability at 72 h, 0.5 µM: 61.5

---

Collected IC50 values appear next to each entry.
# Test system: PANC-1 cells
# ASSAY_METHOD_TEXT: xCELLigence SP impedimetric cell viability
# COND: Homo sapiens, PANC-1, 72 h, read-out: IC50 values (μM) 72 hours
All answers are understood in µM, so give the number only.

The reported PANC-1 cells IC50 of Cc1ccccc1CN1C(=O)C2=C(CCN(Cc3ccccc3)C2)N2CCN=C12 [ONC201, reference compound] is 6.1

Short answer on PANC-1 cells for O=C1C2=C(CCN(Cc3ccccc3)C2)N2CCN=C2N1Cc1ccc(F)cc1 , IC50: 0.35

---
Field IC50 (system: PANC-1 cells) for entry O=C1C2=C(CCN(Cc3ccccc3)C2)N2CCN=C2N1Cc1cccc(F)c1 = 1.8

---

# ASSAY_METHOD_TEXT: in vitro
# COND: human
PROPERTY_LABEL: viability at 72 h, 8.6 µM

Lab note: measured viability at 72 h, 8.6 µM of Cc1ccccc1CN1C(=O)C2=C(CCN(Cc3ccccc3)C2)N2CCN=C12 [ONC201, reference compound] was 88.3%
